- Tested on: 217524-143-R1-J4-PDC spheroids with HUVEC/MSC, viability
- assay-name: Anticancer human tumor 217524-143-R1-J4-PDC patient-derived pancreatic carcinoma cell line growth inhibition [CLK]
- condition-parameters: second compound 1 µM; first compound 1 µM; active compounds read low
Entries annotated with measured viability, T/C

# compound, viability, T/C, %
records = [
    ("Nc1ccn(C2OC(CO)C(O)C2(F)F)c(=O)n1 (stereo not drawn) + CN1CCN(c2cc(C(=O)Nc3cc4cc(-c5cnn(C)c5)ccc4cn3)ccn2)CC1", 1.31),
    ("C#Cc1c(F)ccc2cc(O)cc(-c3ncc4c(N5CC6CCC(C5)N6)nc(OCC56CCCN5CC(F)C6)nc4c3F)c12 (stereo not drawn) + CN1CCN(c2cc(C(=O)Nc3cc4cc(-c5cnn(C)c5)ccc4cn3)ccn2)CC1", 2.36),
    ("CC(=O)O[C@H]1C(=O)[C@@]2(C)[C@H]([C@H](OC(=O)c3ccccc3)[C@]3(O)C[C@H](OC(=O)[C@H](O)[C@@H](NC(=O)c4ccccc4)c4ccccc4)C(C)=C1C3(C)C)[C@]1(OC(C)=O)CO[C@@H]1C[C@@H]2O + CN1CCN(c2cc(C(=O)Nc3cc4cc(-c5cnn(C)c5)ccc4cn3)ccn2)CC1", 1.2),
    ("Nc1ccccc1NC(=O)c1ccc(CNC(=O)OCc2cccnc2)cc1 + CN1CCN(c2cc(C(=O)Nc3cc4cc(-c5cnn(C)c5)ccc4cn3)ccn2)CC1", 1.83),
    ("CCCS(=O)(=O)Nc1ccc(F)c(C(=O)c2c[nH]c3ncc(-c4ccc(Cl)cc4)cc23)c1F + CNC(=O)c1ccc(Nc2nc(OC3CCCC3)c3c(-c4ccc5nc(C)oc5c4)c[nH]c3n2)c(OC)c1", 45),
    ("COC1C=CCC(C)C(C)S(=O)(=O)NC(=O)c2ccc3c(c2)N(CC2CCC21)CC1(CCCc2cc(Cl)ccc21)CO3 (stereo not drawn) + CNC(=O)c1ccc(Nc2nc(OC3CCCC3)c3c(-c4ccc5nc(C)oc5c4)c[nH]c3n2)c(OC)c1", 22.1),
    ("CC(Nc1ccc2c(c1)OCCn1cc(N3C(=O)OCC3C(F)F)nc1-2)C(N)=O (stereo not drawn) + CN1CCN(c2cc(C(=O)Nc3cc4cc(-c5cnn(C)c5)ccc4cn3)ccn2)CC1", 1.2),
    ("O=c1[nH]cc(F)c(=O)[nH]1 + CN1CCN(c2cc(C(=O)Nc3cc4cc(-c5cnn(C)c5)ccc4cn3)ccn2)CC1", 1.31),
]

* * *

- System: 217524-143-R1-J4-PDC spheroids with HUVEC/MSC, viability
- assay-name: Anticancer human tumor 217524-143-R1-J4-PDC cell line growth inhibition [CLK];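 also: spheroids exposed to agents for seven days before reading; 100% = DMSO vehicle control viability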
- condition-parameters: second compound 0.0316 µM; first compound 0.316 µM; active compounds read low

# compound, tested-system, units, viability, T/C
measured = [
    ("COC1C=CCC(C)C(C)S(=O)(=O)NC(=O)c2ccc3c(c2)N(CC2CCC21)CC1(CCCc2cc(Cl)ccc21)CO3 (stereo unspecified) + CN1CCN(c2cc(C(=O)Nc3cc4cc(-c5cnn(C)c5)ccc4cn3)ccn2)CC1", "217524-143-R1-J4-PDC spheroids with HUVEC/MSC, viability", "%", 75),
    ("CC(CO)NC(=O)c1cc(-c2ccc(Cl)cc2)nn(-c2cnn(C)c2)c1=O (stereo unspecified) + CNC(=O)c1ccc(Nc2nc(OC3CCCC3)c3c(-c4ccc5nc(C)oc5c4)c[nH]c3n2)c(OC)c1", "217524-143-R1-J4-PDC spheroids with HUVEC/MSC, viability", "%", 86.5),
    ("O=c1[nH]cc(F)c(=O)[nH]1 + CNC(=O)c1ccc(Nc2nc(OC3CCCC3)c3c(-c4ccc5nc(C)oc5c4)c[nH]c3n2)c(OC)c1", "217524-143-R1-J4-PDC spheroids with HUVEC/MSC, viability", "%", 61.6),
    ("COC1C=CCC(C)C(C)S(=O)(=O)NC(=O)c2ccc3c(c2)N(CC2CCC21)CC1(CCCc2cc(Cl)ccc21)CO3 (stereo unspecified) + CNC(=O)c1ccc(Nc2nc(OC3CCCC3)c3c(-c4ccc5nc(C)oc5c4)c[nH]c3n2)c(OC)c1", "217524-143-R1-J4-PDC spheroids with HUVEC/MSC, viability", "%", 95.8),
    ("CCN1CCN(Cc2ccc(Nc3ncc(F)c(-c4cc(F)c5nc(C)n(C(C)C)c5c4)n3)nc2)CC1 + CNC(=O)c1ccc(Nc2nc(OC3CCCC3)c3c(-c4ccc5nc(C)oc5c4)c[nH]c3n2)c(OC)c1", "217524-143-R1-J4-PDC spheroids with HUVEC/MSC, viability", "%", 40),
    ("O=c1[nH]cc(F)c(=O)[nH]1 + CN1CCN(c2cc(C(=O)Nc3cc4cc(-c5cnn(C)c5)ccc4cn3)ccn2)CC1", "217524-143-R1-J4-PDC spheroids with HUVEC/MSC, viability", "%", 46.5),
]

* * *

- Test system: 217524-143-R1-J4-PDC spheroids with HUVEC/MSC, viability
- assay-name: Anticancer human tumor 217524-143-R1-J4-PDC cell line growth inhibition [CLK];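 also: spheroids exposed to agents for seven days before reading; 100% = DMSO vehicle control viability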
- condition-parameters: second compound 0.316 µM; first compound 10 µM; active compounds read low
Form field: viability, T/C (one value per entry).

# compound, viability, T/C
rows = [
    ("C=C(F)C(=O)N1CCN(c2nc(OCC3CCCN3C)nc3c2CCN(c2cccc4cccc(Cl)c24)C3)CC1CC#N (stereo not drawn) + CN1CCN(c2cc(C(=O)Nc3cc4cc(-c5cnn(C)c5)ccc4cn3)ccn2)CC1", "1.05%"),
    ("CC1COCCN1c1cc(C2(S(C)(=N)=O)CC2)nc(-c2ccnc3[nH]ccc23)n1 (stereo not drawn) + CN1CCN(c2cc(C(=O)Nc3cc4cc(-c5cnn(C)c5)ccc4cn3)ccn2)CC1", "11.4%"),
    ("CC1COCCN1c1cc(C2(S(C)(=N)=O)CC2)nc(-c2ccnc3[nH]ccc23)n1 (stereo not drawn) + CNC(=O)c1ccc(Nc2nc(OC3CCCC3)c3c(-c4ccc5nc(C)oc5c4)c[nH]c3n2)c(OC)c1", "15.1%"),
]

* * *

We begin with a simple list: items and their reported viability, T/C.
- Tested on: 217524-143-R1-J4-PDC spheroids with HUVEC/MSC, viability
- assay-name: Anticancer human tumor 217524-143-R1-J4-PDC cell line growth inhibition [CLK];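 also: spheroids exposed to agents for seven days before reading; 100% = DMSO vehicle control viability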
- condition-parameters: second compound 3.16 µM; first compound 0.1 µM; active compounds read low

# molecule, viability, T/C [%]
records = [
    ("CCc1c2c(nc3ccc(O)cc13)-c1cc3c(c(=O)n1C2)COC(=O)[C@]3(O)CC + CNC(=O)c1ccc(Nc2nc(OC3CCCC3)c3c(-c4ccc5nc(C)oc5c4)c[nH]c3n2)c(OC)c1", 13),
    ("COc1c(OCCCN2CCOCC2)ccc2c3n(c(=NC(=O)c4cnc(N)nc4)nc12)CCN3 + CN1CCN(c2cc(C(=O)Nc3cc4cc(-c5cnn(C)c5)ccc4cn3)ccn2)CC1", 0.47),
    ("CCCS(=O)(=O)Nc1ccc(F)c(C(=O)c2c[nH]c3ncc(-c4ccc(Cl)cc4)cc23)c1F + CNC(=O)c1ccc(Nc2nc(OC3CCCC3)c3c(-c4ccc5nc(C)oc5c4)c[nH]c3n2)c(OC)c1", 31.6),
    ("COc1c(OCCCN2CCOCC2)ccc2c3n(c(=NC(=O)c4cnc(N)nc4)nc12)CCN3 + CNC(=O)c1ccc(Nc2nc(OC3CCCC3)c3c(-c4ccc5nc(C)oc5c4)c[nH]c3n2)c(OC)c1", 2.24),
    ("C#Cc1c(F)ccc2cc(O)cc(-c3ncc4c(N5CC6CCC(C5)N6)nc(OCC56CCCN5CC(F)C6)nc4c3F)c12 (configuration not stated) + CN1CCN(c2cc(C(=O)Nc3cc4cc(-c5cnn(C)c5)ccc4cn3)ccn2)CC1", 0.88),
    ("CC1(C)CCC(CN2CCN(c3ccc(C(=O)NS(=O)(=O)c4ccc(NCC5CCOCC5)c([N+](=O)[O-])c4)c(Oc4cnc5[nH]ccc5c4)c3)CC2)=C(c2ccc(Cl)cc2)C1 + CNC(=O)c1ccc(Nc2nc(OC3CCCC3)c3c(-c4ccc5nc(C)oc5c4)c[nH]c3n2)c(OC)c1", 28.9),
    ("COc1ccc([C@@H](O)c2cc(-c3ncnc4cc(N5CCOCC5)ccc34)c(F)cc2Cl)nn1 + CN1CCN(c2cc(C(=O)Nc3cc4cc(-c5cnn(C)c5)ccc4cn3)ccn2)CC1", 0.54),
    ("O=c1[nH]cc(F)c(=O)[nH]1 + CNC(=O)c1ccc(Nc2nc(OC3CCCC3)c3c(-c4ccc5nc(C)oc5c4)c[nH]c3n2)c(OC)c1", 30.4),
    ("C=CC(=O)N1CCN(c2nc(=O)n(-c3c(C)ccnc3C(C)C)c3nc(-c4c(O)cccc4F)c(F)cc23)C(C)C1 (configuration not stated) + CNC(=O)c1ccc(Nc2nc(OC3CCCC3)c3c(-c4ccc5nc(C)oc5c4)c[nH]c3n2)c(OC)c1", 29.8),
    ("C=CC(=O)N1CCN(c2nc(=O)n(-c3c(C)ccnc3C(C)C)c3nc(-c4c(O)cccc4F)c(F)cc23)C(C)C1 (configuration not stated) + CN1CCN(c2cc(C(=O)Nc3cc4cc(-c5cnn(C)c5)ccc4cn3)ccn2)CC1", 1.37),
    ("Nc1ccccc1NC(=O)c1ccc(CNC(=O)OCc2cccnc2)cc1 + CN1CCN(c2cc(C(=O)Nc3cc4cc(-c5cnn(C)c5)ccc4cn3)ccn2)CC1", 1.03),
    ("Nc1ccn(C2OC(CO)C(O)C2(F)F)c(=O)n1 (configuration not stated) + CN1CCN(c2cc(C(=O)Nc3cc4cc(-c5cnn(C)c5)ccc4cn3)ccn2)CC1", 0.59),
]
